- experimental.system: T1, COVID S1 RBM Fc fusion (Antigen 2) (SARS-CoV-2, UniProt P0DTC2 437-508)
- T1 construct: domain: RBM
- experimental.protocol: phage ELISA
Classification field: enter true for ELISA fold over background values not below 0.9 fold over background, false for values below it.

>>> assigned_category("1-27 (antibody, V domains shown, also called variant 1-27) VH: EVQLLESGGGLVQPGGSLRLSCAASGFTFSSYAMTWVRQAPGKGLEWVSAISGSGGGTYYADSVKGRFTISRDNSKNTLYLQMNSLRAEDTAVYYCASSSSWQFDYWGQGTLVTVSS VL: QSALTQPASVSGSPGQSITISCTGTSSYVGHYNLVSWYQQHPGKAPKLMIYEGSRRPSGVSNRFSGSKSGNTASLTISGLQAEDEADYYCCSYAGSYTHYVFGGGTKLTVL")
"true"
>>> assigned_category("1-31 (antibody, V domains shown, also called variant 1-31) VH: EVQLLESGGGLVQPGGSLRLSCAASGFTFSSYAMNWVRQAPGKGLEWVSAISGSGGSTFYADSVKGRFTISRDNSKNTLYLQMNSLRAEDTAVYYCTRPPYGDYGDYWGQGTLVTVSS VL: QSALTQPASVSGSPGQSITISCTGTSSDVGKYNLVSWYQQHPGKAPKLMIYEGSQRPSGVSNRFSGSKSGNTASLTISGLQAEDEADYYCCSYAGSRTPVVFGGGTKLTVL")
"true"
>>> assigned_category("1-49 (antibody, V domains shown, also called variant 1-49) VH: EVQLLESGGGLVQPGGSLRLSCAASGFTFSSYAMYWVRQAPGKGLEWVSAISGSAGSTYYADSVKGRFTISRDNSKNTLYLQMNSLRAEDTAVYYCARDTNDFWGQGTLVTVSS VL: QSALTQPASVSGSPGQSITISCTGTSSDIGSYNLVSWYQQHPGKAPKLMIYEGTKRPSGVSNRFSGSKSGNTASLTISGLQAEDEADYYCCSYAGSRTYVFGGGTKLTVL")
"false"
>>> assigned_category("1-10 (antibody, V domains shown, also called variant 1-10) VH: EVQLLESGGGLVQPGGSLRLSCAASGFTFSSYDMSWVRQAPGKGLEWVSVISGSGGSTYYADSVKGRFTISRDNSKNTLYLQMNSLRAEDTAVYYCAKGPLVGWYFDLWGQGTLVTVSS VL: QSALTQPASVSGSPGQSITISCTGTSSNVGSYNLVSWYQQHPGKAPKLMIYEGTKRPSGVSNRFSGSKSGNTASLTISGLQAEDEADYYCCSYAGSSSFVVFGGGTKLTVL")
"true"
